Reference for the values: the supplement of paper PMC12340641

For each record, write down the corresponding relative growth in counter assay.
Tested on: HEK293FT dCK*-only
Test: relative growth in counter assay (no AraC = 100%, AraC + DMSO = 0%); higher = more growth rescue independent of IKZF1
Settings: compound concentration: 5 uM; AraC concentration: 0.3 uM; overnight pretreatment + 4 days AraC
Give bare numbers, in %.

Consider the following illustrative entries.
C[C@]12CC[C@H](O)C[C@H]1CC[C@@H]1[C@@H]2CC[C@]2(C)[C@@H](C3=CC(=O)OC3)CC[C@]12O [digitoxigenin]: -34.6
O=C1/C(=C/c2ccccc2)C[C@@]2(O)C3Cc4ccc(O)c5c4[C@@]2(CCN3CC2CC2)[C@H]1O5: -34.5

Next up:
Please state recorded relative growth in counter assay (tested on HEK293FT dCK*-only) of CO[C@H]1C[C@H](O[C@H]2CC[C@@]3(C)[C@H](CC[C@@H]4[C@@H]3CC[C@]3(C)[C@@H](C5=CC(=O)OC5)[C@@H](OC(C)=O)C[C@]43O)C2)O[C@@H](C)[C@@H]1O [Oleandrin]
-35
